Target: T1, pseudo wild type SAP97 PDZ2 (residues 311-407; I342W, C378A) (human, UniProt Q12959 311-407, I342W | C378A)
T1 construct: SAP97 (also called human Dlg), second PDZ domain (PDZ2), residues 311-407; Residues of the thrombin site probably stay at the N-terminus after cleavage (surmised); also called pWT; source: E. coli BL21(DE3) pLysS, purified (nickel-Sepharose, thrombin digestion, nickel reload, Source 30Q); not shown: His tag, N-terminal, cleaved; lipoyl protein domain (Bacillus stearothermophilus), N-terminal, …
T1 sequence (looked up): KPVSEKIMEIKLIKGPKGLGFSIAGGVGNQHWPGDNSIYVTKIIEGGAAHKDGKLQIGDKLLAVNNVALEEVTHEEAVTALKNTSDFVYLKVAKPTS
Experiment: stopped-flow fluorescence kinetics; association: PDZ variant (6-20 µM) mixed with Lipo-E6_(18)-C (2 µM), Trp342 emission; 10°C, 50 mM potassium phosphate pH 7.5, 240 µM β-mercaptoethanol; kon from kobs versus PDZ concentration; Kd = koff/kon
Conditions: both partners purified
pKd: −log10 of the molar value.
QUANTITY_MEASURED: pKd

[
  {
    "BINDER": "Lipo-E6_(18)-C: C-terminal domain of HPV18 E6 (residues 82-158) linked via the N-terminus to His-tagged lipoyl domain (domain or fragment, HPV18 E6 C-terminal domain, residues 82-158, UniProtKB P06463; A thrombin cleavage site (LVPRGS) stands between the lipoyl domain and the E6 domain and was not cut; also called HPV18 E6 C-terminal domain; source: E. coli BL21(DE3) pLysS, purified (nickel-Sepharose, Source 30Q; thrombin digestion omitted); not shown: His tag, N-terminal, kept; lipoyl protein domain (Bacillus stearothermophilus), …) SDSVYGDTLEKLTNTGLYNLLIRCLRCQKPLNPAEKLRHLNEKRRFHNIAGHYRGQCHSCCNRARQERLQRRRETQV",
    "QUANTITY_MEASURED": "pKd",
    "OBS_VALUE": 6.27
  }
]
